Hello, the source for this data is patent US10766894B2, in case you need it.

biological target: recombinant human Jak3 (aa811-1124) (Homo sapiens (Human), UniProt P52333); experiment: Kinase panel, substrate peptide phosphorylation (Caliper mobility shift), JAK3; type: biochemical
Sequence (P52333 811-1124 limits assumed): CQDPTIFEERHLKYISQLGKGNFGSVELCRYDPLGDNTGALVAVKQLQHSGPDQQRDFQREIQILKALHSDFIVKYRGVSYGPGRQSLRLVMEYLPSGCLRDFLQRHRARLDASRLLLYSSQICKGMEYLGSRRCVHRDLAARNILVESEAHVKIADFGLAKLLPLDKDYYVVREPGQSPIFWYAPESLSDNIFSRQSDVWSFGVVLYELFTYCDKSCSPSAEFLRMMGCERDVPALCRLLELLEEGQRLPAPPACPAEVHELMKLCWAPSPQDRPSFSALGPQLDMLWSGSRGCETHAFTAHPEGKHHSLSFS
endpointLabel: IC50 (µM)
The answer is to be given in µM; state only the numeric part.

Give its IC50 value. Item: N#C[C@@H]1C[C@H](N2CCC2)CC[C@H]1n1cc(C(N)=O)c(Nc2ccc(C(F)(F)F)cc2)n1 10

For N#C[C@H]1C[C@H](O)CC[C@@H]1n1cc(C(N)=O)c(Nc2ccc(C(F)(F)F)cc2)n1 [reference compound] , what is its reported IC50? 10

Any idea what IC50 was measured for N#C[C@H]1C[C@@H](N2CCC2)CC[C@@H]1n1cc(C(N)=O)c(Nc2ccc(C(F)(F)F)cc2)n1 [reference compound] ? 10

###

tested on: mouse immortalized TT-D6 Scx-luciferase (ScxL) cell line; transcriptional activation of Scleraxis (Scx) gene; assay: SCX-LUC in vitro assay (scleraxis promoter luciferase reporter); type: cell-based; conditions: Mus musculus, 96 h; Examples table; TT-D6 Scx-luciferase cells, 1 ng/ml TGFβ1, four days; read-out: Scx-Luc (EC50 μM)
endpointLabel: EC50 (µM)
Response body: numeric value in µM, unit text excluded.

Endpoint output: EC50 of Nc1n[nH]c2ccc(-c3ccc(S(=O)(=O)N[C@H]4CCC[C@H]4O)cc3Cl)nc12 [Example 35] . Value? 2.73

// returns reported EC50 for input Nc1n[nH]c2ccc(-c3ccc(S(=O)(=O)N[C@@H]4CCC[C@@H]4O)cc3Cl)nc12 [Example 7] 0.305

Field request: EC50 | item: Cc1cc(S(=O)(=O)N2CCC[C@H]2CO)ccc1-c1ccc2[nH]nc(N)c2n1 [Example 70] 0.762

Which EC50 is reported for this molecule? Nc1n[nH]c2ccc(-c3ccc(S(=O)(=O)N[C@@H]4CCC[C@H]4O)cc3Cl)nc12 [Example 29] 1.91

What measured EC50 goes with Cc1cc(S(=O)(=O)N(C)[C@H]2C[C@](O)(C(F)(F)F)C2)ccc1-c1ccc2[nH]nc(N)c2n1 [Example 9] ? 0.46

Reported EC50 for Nc1n[nH]c2ccc(-c3ccc(S(=O)(=O)NC4CCCCC4O)cc3Cl)nc12 (stereo not shown) [Example 12] : what is it? 0.765

What does the data say about its EC50? Entry: N#Cc1cccc(S(=O)(=O)Nc2ccc(-c3ccc4[nH]nc(N)c4n3)c(Cl)c2)c1 [Example 22] 0.035

Entry Nc1n[nH]c2ccc(-c3ccc(S(=O)(=O)N4CC[C@@H](O)C4)cc3Cl)nc12 [Example 57] : reported EC50 = ? 0.633

For the molecule Nc1n[nH]c2ccc(-c3ccc(NS(=O)(=O)Cc4ccccc4)cc3Cl)nc12 [Example 59] , what EC50 is on record? 4.32

Fill blank: measured EC50 of the molecule Cc1cc(S(=O)(=O)NC2CCCCC2O)ccc1-c1ccc2[nH]nc(N)c2n1 (stereo not shown) [Example 91] is ____. 1.81

I have this molecule here, Cc1cc(S(=O)(=O)N2CCC(CCO)C2)ccc1-c1ccc2[nH]nc(N)c2n1 (stereo not shown) [Example 83] , and I need its recorded EC50. 5.33

Return reported EC50; argument: Nc1n[nH]c2ccc(-c3ccc(NS(=O)(=O)c4ccc(OC(F)(F)F)cc4)cc3Cl)nc12 [Example 88] 2.43

Consider the molecule shown here: Nc1n[nH]c2ccc(-c3ccc(NS(=O)(=O)c4ccc(Cl)c(F)c4)cc3Cl)nc12 [Example 13] What is its recorded EC50? 1.34

Which value of EC50 has been reported for Nc1n[nH]c2ccc(-c3ccc(S(=O)(=O)Nc4cccc(Cl)c4Cl)cc3Cl)nc12 [Example 56] in the records? 1.64

// query EC50 value for entry Nc1n[nH]c2ccc(-c3ccc(S(=O)(=O)Nc4ccccc4)cc3Cl)nc12 [Example 38] 0.61

Give the measured EC50 of Nc1n[nH]c2ccc(-c3ccc(S(=O)(=O)N[C@H]4CC[C@H](O)CC4)cc3Cl)nc12 [Example 45] . 4.73

###

Kindly supply the reported IC50 values for the records listed here.
target: recombinant human Tyk2 (aa888-1187) (Homo sapiens (Human)); assay: Kinase panel, substrate peptide phosphorylation (Caliper mobility shift), TYK2; assay type: biochemical; conditions: 3 nM kinase, 45 uM ATP, 60 min at 30° C.
Sequence (P29597 888-1187): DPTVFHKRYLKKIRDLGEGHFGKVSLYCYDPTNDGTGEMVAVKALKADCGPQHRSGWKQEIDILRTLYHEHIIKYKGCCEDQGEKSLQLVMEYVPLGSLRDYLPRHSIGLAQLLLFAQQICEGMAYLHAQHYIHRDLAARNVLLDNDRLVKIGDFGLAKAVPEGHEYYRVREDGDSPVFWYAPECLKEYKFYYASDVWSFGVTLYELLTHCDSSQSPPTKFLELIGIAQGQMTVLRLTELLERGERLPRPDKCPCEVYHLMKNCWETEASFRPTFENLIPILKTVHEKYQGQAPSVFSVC
Please state the figure in µM; there is no need to write the unit.

Can you share its IC50? I mean this molecule: N#C[C@H]1C[C@H](O)CC[C@@H]1n1cc(C(N)=O)c(Nc2ccc(C(F)(F)F)cc2)n1 [reference compound] 0.11

Quick check: IC50 of N#C[C@H]1C[C@@H](N2CCC2)CC[C@@H]1n1cc(C(N)=O)c(Nc2ccc(C(F)(F)F)cc2)n1 [reference compound] ? 1.8

Look up IC50: N#C[C@@H]1C[C@H](N2CCC2)CC[C@H]1n1cc(C(N)=O)c(Nc2ccc(C(F)(F)F)cc2)n1 0.12

###

system: mouse immortalized TT-D6 Scx-luciferase (ScxL) cell line; transcriptional activation of Scleraxis (Scx) gene; assay: SCX-LUC in vitro assay (scleraxis promoter luciferase reporter); format: cell-based; settings: Mus musculus, 96 h; Examples table; TT-D6 Scx-luciferase cells, 1 ng/ml TGFβ1, four days; read-out: Scx-Luc (EC50 μM)
endpointLabel: EC50 (µM)
Only the number, expressed in µM, is required.

Please look up its EC50: Nc1n[nH]c2ccc(-c3ccc(S(=O)(=O)Nc4cccc(Cl)c4)cc3Cl)nc12 2.54

Data request, read-out EC50, for Nc1n[nH]c2ccc(-c3ccc(S(=O)(=O)NCCO)cc3Cl)nc12 4.09

Consider the molecule Nc1n[nH]c2ccc(-c3ccc(S(=O)(=O)NC4CCCC(O)C4)cc3Cl)nc12 (centres unmarked) and give its measured EC50. 4.12

Value lookup for EC50; key = Cc1cc(NS(=O)(=O)c2cccc(Cl)c2)ccc1-c1ccc2[nH]nc(N)c2n1 2

# lookup: EC50 of Nc1n[nH]c2ccc(-c3ccc(S(=O)(=O)N4CC(Oc5ccccc5)C4)cc3Cl)nc12 0.83

Would you kindly share the measured EC50 for Nc1n[nH]c2ccc(-c3ccc(S(=O)(=O)NC4CC(F)(F)C4)cc3Cl)nc12 ? 0.444

// EC50 lookup, key: Cc1cc(S(=O)(=O)N[C@H]2CC[C@@H](O)CC2)ccc1-c1ccc2[nH]nc(N)c2n1 0.912

Form field: reported EC50 of C[C@]1(O)CC[C@H](NS(=O)(=O)c2ccc(-c3ccc4[nH]nc(N)c4n3)c(Cl)c2)CC1 1.51

###

system: mouse immortalized TT-D6 Scx-luciferase (ScxL) cell line; transcriptional activation of Scleraxis (Scx) gene; assay: SCX-LUC in vitro assay (scleraxis promoter luciferase reporter); format: cell-based; settings: Mus musculus, 96 h; Examples table; TT-D6 Scx-luciferase cells, 1 ng/ml TGFβ1, four days; read-out: Scx-Luc (EC50 μM)
param class (str): category from EC50; see ranges Low = under 0.6 µM, Mid = from 0.6 µM up to 2 µM, High = 2 µM and over

Note: place this molecule into its band. Item: Nc1n[nH]c2ccc(-c3ccc(NS(=O)(=O)c4ccc(C(F)(F)F)cc4)cc3Cl)nc12 High

Input Nc1n[nH]c2ccc(-c3ccc(S(=O)(=O)NC4(CO)CCCC4)cc3Cl)nc12 ; output its category High

Hi there! Could you help me figure out the category for Cc1cc(S(=O)(=O)N[C@H]2CC[C@](C)(O)CC2)ccc1-c1ccc2[nH]nc(N)c2n1 please? Low

For the record COc1ccc(S(=O)(=O)Nc2ccc(-c3ccc4[nH]nc(N)c4n3)c(Cl)c2)cc1OC , report the class its EC50 corresponds to. Low

Band for the recorded EC50 of Nc1n[nH]c2ccc(-c3ccc(S(=O)(=O)Nc4cccc(F)c4F)cc3Cl)nc12 ? Low

Hello team, could you let me know which band the following molecule falls into: Nc1n[nH]c2ccc(-c3ccc(NS(=O)(=O)c4ccc5c(c4)OCO5)cc3Cl)nc12 Mid

Exam item: assign Nc1n[nH]c2ccc(-c3ccc(NS(=O)(=O)c4ccc5c(c4)NCCO5)cc3Cl)nc12 to the correct category. High

Sort Cc1cc(S(=O)(=O)N[C@@H]2CC[C@H](O)C2)ccc1-c1ccc2[nH]nc(N)c2n1 into one of the categories. Mid

Band assignment needed for Cc1cc(S(=O)(=O)N[C@H]2C[C@@H](O)C2)ccc1-c1ccc2[nH]nc(N)c2n1 please. Low

Classify this molecule: Nc1n[nH]c2ccc(-c3ccc(S(=O)(=O)NC4CCS(=O)(=O)C4)cc3Cl)nc12 (stereo not drawn) Low

Where would Nc1n[nH]c2ccc(-c3ccc(S(=O)(=O)Nc4ccccc4)cc3F)nc12 land among the classes by reported EC50? Mid

Please indicate the class for Cc1cc(S(=O)(=O)N2CC(F)(F)CC2C(N)=O)ccc1-c1ccc2[nH]nc(N)c2n1 (stereo not drawn) based on its EC50. High

Into which bin does this molecule go? Cc1cc(S(=O)(=O)N[C@H]2CC[C@H](O)CC2)ccc1-c1ccc2[nH]nc(N)c2n1 Mid

Sort into band: CC(C)(C)NS(=O)(=O)c1ccc(-c2ccc3[nH]nc(N)c3n2)c(F)c1 Mid

Lab note: sort Cc1cccc(S(=O)(=O)Nc2ccc(-c3ccc4[nH]nc(N)c4n3)c(Cl)c2)c1 into the matching EC50 band. Low

Exam item: assign Cc1cc(S(=O)(=O)NC2CCCC(O)C2)ccc1-c1ccc2[nH]nc(N)c2n1 (stereo not drawn) to the correct category. Low

Band of Cc1cc(S(=O)(=O)NC2CC(F)(F)C2)ccc1-c1ccc2[nH]nc(N)c2n1 ? Low

Class label required: Cc1cc(S(=O)(=O)N[C@H]2C[C@](O)(C(F)(F)F)C2)ccc1-c1ccc2[nH]nc(N)c2n1 Low

Note: place this molecule into its band. Item: Nc1n[nH]c2ccc(-c3ccc(NS(=O)(=O)c4ccc(Cl)c(Cl)c4)cc3Cl)nc12 High

Please indicate the class for Cc1cc(S(=O)(=O)N[C@H]2C[C@H](O)C2)ccc1-c1ccc2[nH]nc(N)c2n1 based on its EC50. Mid

# bin lookup: classify Nc1n[nH]c2ccc(-c3ccc(S(=O)(=O)N4CC5CC5C4)cc3Cl)nc12 (stereo not drawn) by its EC50 Mid

Band for the recorded EC50 of Cc1cc(S(=O)(=O)NC2CCCCC2)ccc1-c1ccc2[nH]nc(N)c2n1 ? Low

Entry Nc1n[nH]c2ccc(-c3ccc(S(=O)(=O)NCc4ccccc4)cc3Cl)nc12 belongs to which category? High

Band assignment needed for Nc1n[nH]c2ccc(-c3ccc(NS(=O)(=O)c4ccc(F)c(F)c4)cc3Cl)nc12 please. Mid

Would you mind sorting Nc1n[nH]c2ccc(-c3ccc(S(=O)(=O)N4CC5CCCC5C4)cc3Cl)nc12 (stereo not drawn) into the appropriate category? High

Category of COc1cccc(S(=O)(=O)Nc2ccc(-c3ccc4[nH]nc(N)c4n3)c(Cl)c2)c1 , please. High

For this molecule, which bin applies? Cc1cc(NS(=O)(=O)c2cccc(F)c2)ccc1-c1ccc2[nH]nc(N)c2n1 Mid

Class label required: Nc1n[nH]c2ccc(-c3ccc(S(=O)(=O)N4CC(F)(F)C[C@H]4CO)cc3Cl)nc12 Mid

Bin this entry: Nc1n[nH]c2ccc(-c3ccc(NS(=O)(=O)c4ccc(Cl)cc4)cc3Cl)nc12 Mid

Form field 'band' for Cc1cc(S(=O)(=O)N[C@@H]2CCC[C@@H]2O)ccc1-c1ccc2[nH]nc(N)c2n1 Mid

For CC1(C)CCC(NS(=O)(=O)c2ccc(-c3ccc4[nH]nc(N)c4n3)c(Cl)c2)CC1 , which EC50 bin applies? Mid
